molecular target: C-C chemokine receptor type 6 (Homo sapiens) (UniProt P51684); experiment: potency against CXCR6 with APJ panel – cell-based, beta-arrestin, DiscoveRx, uHTS hits, dose response (AID 624129); settings: CXCR6 beta-arrestin (DiscoveRx) antagonist cell assay, CCR6, dose range 1
Overview of reported IC50 across a group of molecules:

# annotated cases, reported IC50 shown
molecule	IC50
O=C(OCn1ncc(Cl)c(Cl)c1=O)c1cccc(C(F)(F)F)c1	14 µM
O=C1C(Cc2ccccc2)Nc2ncnc(N3CCN(c4ccccc4)CC3)c2N1Cc1ccc(Br)cc1 (stereo unspecified)	1.67 µM
C/C(=N\NC(=O)Cn1c(-c2ccccn2)nc2ccccc21)c1ccccc1	13.7 µM
Cc1cccc(CSc2cccc3cccnc23)c1	3.94 µM
O=C(Cn1sc2ccccc2c1=O)NC12CC3CC(CC(C3)C1)C2	1.54 µM
CS(=O)(=O)c1sc(C#N)c2c1C(=O)CC(c1ccccc1)C2 (stereo unspecified)	27.4 µM
COc1cc(/C=C/c2ccc3cccc(O)c3n2)cc(OC)c1OC	3.45 µM
CN(C)c1nc(=NCc2ccco2)ss1	43.4 µM
CC(=NNc1nc2ccccc2s1)c1ncccn1	7.51 µM

The measured IC50 associated with "CC(=O)Nc1ccc(NC(=O)c2nc(S(=O)(=O)Cc3cccc(C)c3)ncc2Cl)cc1" reads 6.61 µM

---

biological target: C-X-C chemokine receptor type 6 (Homo sapiens) (UniProt O00574); assay: potency against CXCR6 with APJ panel – cell-based, beta-arrestin, DiscoveRx, uHTS hits, dose response (AID 624129); settings: CXCR6 beta-arrestin (DiscoveRx) antagonist cell assay, CXCR6, run 2, dose range 2
Sequence (O00574 whole entry, looked up): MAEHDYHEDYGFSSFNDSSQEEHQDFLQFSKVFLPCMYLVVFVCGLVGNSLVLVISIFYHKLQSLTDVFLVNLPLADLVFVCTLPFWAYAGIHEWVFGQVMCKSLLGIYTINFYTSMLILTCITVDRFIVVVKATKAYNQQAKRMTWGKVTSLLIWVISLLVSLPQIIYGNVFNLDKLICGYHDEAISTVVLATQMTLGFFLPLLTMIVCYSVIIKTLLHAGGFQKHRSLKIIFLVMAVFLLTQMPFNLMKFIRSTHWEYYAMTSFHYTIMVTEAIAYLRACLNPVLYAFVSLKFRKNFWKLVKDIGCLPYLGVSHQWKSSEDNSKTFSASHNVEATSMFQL
The label Condition met is reserved for IC50 strictly under 10 µM; Condition not met covers values equal to or above it.

compound	class-assignment
N#Cc1c(C#N)c(SSc2c(C#N)c(C#N)c(N)n2-c2ccccc2)n(-c2ccccc2)c1N	Condition not met

Lookup: Criterion: IC50 strictly below 10 µM. Is it met by CCC(C)c1ccc(O)c(NC(=S)NC(=O)c2cccs2)c1 (stereo not given) ?
Found: Condition met

Lookup: Criterion: IC50 strictly below 10 µM. Is it met by "N#CC(C#N)=C1C=CC=CN1/C(=C\c1ccco1)C(=O)c1ccccc1" ?
Found: Condition met

Lookup: Criterion: IC50 strictly below 10 µM. Is it met by "COc1ccc(C(=O)N/N=C/c2cccc3cccnc23)cc1" ?
Found: Condition not met

Lookup: Criterion: IC50 strictly below 10 µM. Is it met by "CN(CCO)c1cc(Sc2nc3ccccc3s2)c2nonc2c1[N+](=O)[O-]" ?
Found: Condition met

---

molecular target: UniProtKB P51684; assay: potency against CXCR6 with APJ panel – cell-based, beta-arrestin, DiscoveRx, uHTS hits, dose response (AID 624129); settings: CXCR6 beta-arrestin (DiscoveRx) antagonist cell assay, CCR6, dose range 1, mean IC50 across replicates
measurement-kind: log10 IC50 (log10 of the value in µM)
Recorded IC50 (log10, µM)

# annotated cases, reported log10 IC50 shown
compound	log10 IC50
O=[N+]([O-])c1c(NCCCO)cc(Sc2nc3ccccc3s2)c2nonc12	0.94
CCn1c(=O)c([N+](=O)[O-])c(Cl)c2ccccc21	0.56
C=C1CC(COc2ccc3c(C)c(Cl)c(=O)oc3c2)(c2ccccc2)OC1=O (stereo not drawn)	0.15
CN(C)S(=O)(=O)c1cccc(NC(=O)CSc2cccc3cccnc23)c1	1.53

The measured log10 IC50 associated with Cc1ccc(CN2C(=O)C(Cc3ccccc3)Nc3ncnc(N4CCN(c5ccccc5)CC4)c32)cc1 (stereo not drawn) reads 0.39

The measured log10 IC50 associated with "C=C(CN(C)C)C(=O)c1ccc(C)cc1C" reads 1.46

The measured log10 IC50 associated with COc1ccc(NC(=O)/C(Cl)=C(/Cl)S(=O)Cc2ccccc2)cn1 (stereo not drawn) reads 0.70

The measured log10 IC50 associated with "CS(=O)(=O)c1ncc(Cl)c(C(=O)Nc2ccc3ccccc3c2)n1" reads 1.68

The measured log10 IC50 associated with COc1ccc(C2CC(c3c(O)n(CCc4ccccc4)c(=O)[nH]c3=O)=NN2)cc1OC (stereo not drawn) reads 1.26

The measured log10 IC50 associated with "COc1ccc(CCN2C(=O)C=CC2=O)cc1OC" reads 0.80

---

target: C-X-C chemokine receptor type 6 (Homo sapiens) (UniProt O00574); assay: potency against CXCR6 with APJ panel – cell-based, beta-arrestin, DiscoveRx, uHTS hits, dose response (AID 624129); settings: CXCR6 beta-arrestin (DiscoveRx) antagonist cell assay, CXCR6, run 2, dose range 1, at 79 µM (top of the series)
measurement-kind: inhibition (%)
// note: answer is a bare numeric in %

# annotated cases, reported inhibition shown
compound	tested-system	reading-unit	reading
CCOC(=O)CS(=O)(=O)c1nc(-c2ccccc2)cc(C(F)(F)F)n1	C-X-C chemokine receptor type 6 (Homo sapiens) (UniProt O00574)	%	108
CS(=O)(=O)c1ncc(Cl)c(C(=O)Nc2ccc(OC(F)F)cc2)n1	C-X-C chemokine receptor type 6 (Homo sapiens) (UniProt O00574)	%	113
CCOC(=O)C1=C(C)NC2=C(C(=O)CC(c3cccs3)C2)C1c1cccs1 (configuration not stated)	C-X-C chemokine receptor type 6 (Homo sapiens) (UniProt O00574)	%	70.4

The measured inhibition associated with CC(Oc1ccccc1)C(=O)Nc1nc(-c2ccccn2)cs1 (configuration not stated) reads 97.6

The measured inhibition associated with "Cc1cc(O)ccc1NC(=S)NC(=O)c1cncc(Br)c1" reads 68.1

The measured inhibition associated with "Cc1cccc(CS(=O)(=O)c2ncc(Cl)c(C(=O)NCc3ccccc3)n2)c1" reads 112

The measured inhibition associated with "Cn1cnc([N+](=O)[O-])c1S(=O)(=O)c1cccc(Cl)c1" reads 112

The measured inhibition associated with "CN(CC(=O)Nc1cc(S(=O)(=O)N2CCCC2)ccc1Cl)Cc1cccs1" reads 78.8

---

target: UniProt P51684; test: potency against CXCR6 with APJ panel – cell-based, beta-arrestin, DiscoveRx, uHTS hits, dose response (AID 624129); details: CXCR6 beta-arrestin (DiscoveRx) antagonist cell assay, CCR6, run 2, dose range 1
The label t is reserved for IC50 strictly under 4 µM; f covers values equal to or above it.

compound	tested-system	class-assignment
COc1ccc(C2CC(c3c(O)n(CCc4ccccc4)c(=O)[nH]c3=O)=NN2)cc1OC (stereo unspecified)	UniProt P51684	f
CCOc1ccc(N(CC(=O)N/N=C/c2ccccn2)S(=O)(=O)c2ccc(Cl)cc2)cc1	UniProt P51684	f
Cc1ccc2oc(/N=C(\N)NC(=O)C(C)(C)C)nc2c1	UniProt P51684	f
FC(F)(F)c1cnc(NNC(=S)Nc2ccc(Cl)cc2)c(Cl)c1	UniProt P51684	f
Cc1ccc(C(=O)CNc2ccc(F)cc2)cc1	UniProt P51684	t
Cc1c(Cl)sn(-c2ccc(Cl)cc2)c1=O	UniProt P51684	f
CC(=O)OCCCNc1cc(Sc2ccc(Cl)cc2)c2nonc2c1[N+](=O)[O-]	UniProt P51684	t
Cc1cc(C)c2ccc(N)nc2c1O	UniProt P51684	f

Lookup: Criterion: IC50 strictly below 4 µM. Is it met by "CCC(=O)OCCNc1cc(Sc2nccn2C)c2nonc2c1[N+](=O)[O-]" ?
Found: f

Lookup: Criterion: IC50 strictly below 4 µM. Is it met by "S=C(N/N=C/c1ccccc1)N1CCOCC1" ?
Found: f

Lookup: Criterion: IC50 strictly below 4 µM. Is it met by "C/C(=N\NC(=O)C(c1ccccc1)c1ccccc1)c1ccccn1" ?
Found: t

---

molecular target: C-X-C chemokine receptor type 6 (Homo sapiens) (UniProt O00574); assay: potency against CXCR6 with APJ panel – cell-based, beta-arrestin, DiscoveRx, uHTS hits, dose response (AID 624129); conditions: CXCR6 beta-arrestin (DiscoveRx) antagonist cell assay, CXCR6, dose range 1
Activity calls are given as the source filed them. No rule for the calls is given here.
measurement-kind: IC50

# annotated cases, reported IC50 shown
molecule	tested-system	IC50
O=Cc1s/c(=N\S(=O)(=O)c2ccccc2)n(CCCCl)c1Cl	C-X-C chemokine receptor type 6 (Homo sapiens) (UniProt O00574)	4.95 µM
CCOc1cc(Br)c(Br)c(C=Nc2ccc(NC(C)=O)cc2)c1O	C-X-C chemokine receptor type 6 (Homo sapiens) (UniProt O00574)	inactive
COc1ccc(C(=O)/C=C/C(=O)N(CC(=O)NC2CCCCC2)Cc2cccs2)c(O)c1	C-X-C chemokine receptor type 6 (Homo sapiens) (UniProt O00574)	> 80 µM (inactive)
O=[N+]([O-])c1c(Nc2ccccc2O)cc(Cl)c2nonc12	C-X-C chemokine receptor type 6 (Homo sapiens) (UniProt O00574)	inactive
O=C(Nc1nc(-c2ccccn2)cs1)Nc1ccc(F)cc1F	C-X-C chemokine receptor type 6 (Homo sapiens) (UniProt O00574)	11.4 µM
N#CC(C#N)=C1C=CC=CN1/C(=C\c1ccccc1Cl)C(=O)c1ccccc1	C-X-C chemokine receptor type 6 (Homo sapiens) (UniProt O00574)	7.69 µM

The measured IC50 associated with "O=[N+]([O-])c1cc(Cc2ccccc2)cc(C=Nc2ccc(N3CCOCC3)cc2)c1O" reads inactive

The measured IC50 associated with "O=C1c2ccccc2C(=O)N1OS(=O)(=O)c1ccc(F)cc1" reads > 80 µM (inactive)

The measured IC50 associated with C/C(=N\NC(=O)C1COc2ccccc2O1)c1ccccn1 (stereo unspecified) reads inactive

The measured IC50 associated with "CNC(=O)c1nnsc1S(=O)(=O)c1ccc(Cl)cc1" reads inactive

The measured IC50 associated with "CCCOc1cccc(-c2cc(C(=O)N/N=C/c3ccccn3)c3ccccc3n2)c1" reads 9.05 µM

Just for reference, PubChem BioAssay AID624129 is where these values come from.
